Consider the following compounds; for each one, report its pKi.
# reply with the number alone; pKi is -log10 of concentration in mol/L

Value wanted: pKi (mammalian catalase (Bos taurus)) of entry Oc1cccc(O)c1O [pyrogallol, 1,2,3-trihydroxybenzene(pyrogallol)]
2.77

Value wanted: pKi (mammalian catalase (Bos taurus)) of entry CC(=O)Oc1cc2c(cc1Cl)C(c1ccccc1C(=O)O)c1cc(Cl)c(OC(C)=O)cc1O2
4.50
